Target: CRBN (Homo sapiens)
Construct: purchased Cisbio 64BDCRBNPEG
Test: CRBN binding assay (HTRF competition)
Description: Bonding activity between CRBN and compounds were detected by the HTRF competition assay using a CRBN binding kit (Cisbio, 64BDCRBNPEG). First, a reagent in the kit was equilibrated to room temperature and diluted to 1 fold with double-distilled water, and both the reagent and samples were uniformly mixed by thorough vortexing for later use. […]
measured.quantity: IC50 (µM)
// note: answer is a bare numeric in µM

Enter IC50 (test system CRBN (Homo sapiens)) for N#Cc1ccc(N2CCN(Cc3ccc(COc4cccc5c4CN([C@H]4CCC(=O)NC4=O)C5=O)cc3)CC2)c(F)c1 [CC-92480, reference compound] 0.108
